System: CAF#2 (primary prostate cancer-associated fibroblasts of iCAF-like type)
experimentalProtocol: drug sensitivity score (DSS2, normalised partial AUC of dose-response, 72 h CellTiter-Glo viability) (DSS (dimensionless)); higher = more sensitive (stronger growth inhibition / cytotoxicity); extreme values may be limits of the assay
Note to self: class = bucket of drug sensitivity score, per low end: < 2; middle: ≥ 2 and < 5; high end: ≥ 5

compound | discreteLabel
CO[C@@]12[C@H](COC(N)=O)C3=C(C(=O)C(C)=C(N)C3=O)N1C[C@@H]1N[C@@H]12 [Mitomycin C] (tested concentration range 1-10000 nM) | low end
CS(=O)(=O)CCNCc1ccc(-c2ccc3ncnc(Nc4ccc(OCc5cccc(F)c5)c(Cl)c4)c3c2)o1 [Lapatinib] (tested concentration range 0.1-1000 nM) | low end
COC(=O)c1ccc2c(c1)NC(=O)/C2=C(\Nc1ccc(N(C)C(=O)CN2CCN(C)CC2)cc1)c1ccccc1 [Nintedanib] (tested concentration range 1-10000 nM) | high end
Cc1c(Cn2c(C)nc3c(C(=O)O)cc(N4CCOCC4)cc32)cccc1C(F)(F)F (tested concentration range 1-10000 nM) | low end
CC(C)C[C@H](NC(=O)CNC(=O)c1cc(Cl)ccc1Cl)B(O)O [Ixazomib] (tested concentration range 0.1-1000 nM) | high end
CC/C(=C(\c1ccc(O)cc1)c1ccc(OCCN(C)C)cc1)c1ccccc1 [4-hydroxytamoxifen] (tested concentration range 1-10000 nM) | high end
O=C(c1ccc(F)c(F)c1Nc1ccc(I)cc1F)N1CC(O)([C@@H]2CCCCN2)C1 [Cobimetinib] (tested concentration range 0.1-1000 nM) | middle
Cc1nc(NC(=O)N2CCC[C@H]2C(N)=O)sc1-c1ccnc(C(C)(C)C(F)(F)F)c1 [Alpelisib] (tested concentration range 0.2-2500 nM) | middle
CO[C@H]1C[C@@H]2CC[C@@H](C)[C@@](O)(O2)C(=O)C(=O)N2CCCC[C@H]2C(=O)O[C@H]([C@H](C)C[C@@H]2CC[C@@H](OC(=O)C(C)(CO)CO)[C@H](OC)C2)CC(=O)[C@H](C)/C=C(\C)[C@@H](O)[C@@H](OC)C(=O)[C@H](C)C[C@H](C)/C=C/C=C/C=C/1C [Temsirolimus] (tested concentration range 0-100 nM) | high end
Nc1ccn([C@@H]2O[C@H](CO)[C@@H](O)C2(F)F)c(=O)n1 [Gemcitabine] (tested concentration range 0.1-1000 nM) | high end
CC(C)(C)c1nc(-c2cccc(NS(=O)(=O)c3c(F)cccc3F)c2F)c(-c2ccnc(N)n2)s1 [Dabrafenib] (tested concentration range 0.2-2500 nM) | low end
C[C@@H]1COCCN1c1cc(C2([S@](C)(=N)=O)CC2)nc(-c2cc[nH]c3nccc2-3)n1 [Ceralasertib] (tested concentration range 2.5-25000 nM) | high end
COc1cc(N2CCC(N3CCN(C)CC3)CC2)ccc1Nc1ncc(Cl)c(Nc2ccccc2P(C)(C)=O)n1 [Brigatinib] (tested concentration range 0.1-1000 nM) | middle
Nc1cc(F)ccc1NC(=O)/C=C/c1cnn(C/C=C/c2ccccc2)c1 [RGFP966] (tested concentration range 1-10000 nM) | middle
Cn1ncc(Cl)c1-c1cc(C(=O)N[C@H](CN)Cc2cccc(F)c2)sc1Cl [Afuresertib] (tested concentration range 0.1-1000 nM) | low end
CN1CCN(CCOc2cc(OC3CCOCC3)c3c(Nc4c(Cl)ccc5c4OCO5)ncnc3c2)CC1 [Saracatinib] (tested concentration range 1-10000 nM) | high end
Nc1cc(F)ccc1NC(=O)c1ccc(CNC(=O)/C=C/c2cccnc2)cc1 [Tucidinostat] (tested concentration range 1-10000 nM) | high end
CNC(=O)c1ccc(N2C(=S)N(c3ccc(C#N)c(C(F)(F)F)c3)C(=O)C2(C)C)cc1F [Enzalutamide] (tested concentration range 1-10000 nM) | middle
Cc1cc2c(F)c(Oc3ncnn4cc(OC[C@@H](C)O)c(C)c34)ccc2[nH]1 [Brivanib] (tested concentration range 0.1-1000 nM) | low end
N#CCNC(=O)c1ccc(-c2ccnc(Nc3ccc(N4CCOCC4)cc3)n2)cc1 [Momelotinib] (tested concentration range 1-10000 nM) | middle
COC(=O)c1ccc2c(c1)[nH]c1ncnc(NCCCN3CCCCC3)c12 [UM729] (tested concentration range 1-10000 nM) | low end
